# key: entry, value: protein stability index
B1: PDZK1 (parent)
chain: FQAKKIPIVSSLADPLDTPPDSKE

variants of: B1; assay: protein stability index of a GFP-peptide fusion (GPS, HEK-293T) (PSI 1-6); higher = more stable; settings: c terminus: a fixed tail appended;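 note: lentivirally expressed fusions sorted by FACS into six bins by GFP to DsRed ratio, PSI derived from sequencing read proportions per bin multiplied by bin number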
Note: the reply should be a number with no unit written.

Examples from the recorded data:
P20S | 3.62
T18R | 3.6
T18D | 3.68

Record P19S , field protein stability index: 3.67

Looking up P15T , I see its protein stability index listed as 3.57
